# Test system: Mus musculus
# assay.info: Nephroprotective activity in CD1 Mus musculus (mouse) assessed as reduction of CCl4-induced plasma creatinine level at 20 mg/kg, po administered 30 min before and 3 hr after CCl4 challenge measured 48 hr post CCl4 challenge (reference value: 1.2 +/- 0.006 mg/dl)
# Format: functional
Short version: Activity at least 0.7 mg/dL is Condition met, less is Condition not met.

Q. Is the recorded value of Activity equal to or greater than 0.7 mg/dL for this molecule? "COc1ccc(-c2oc3cc(O[C@@H]4O[C@H](CO)[C@@H](O)[C@H](O[C@@H]5O[C@@H](C)[C@H](O)[C@@H](O)[C@H]5O)[C@H]4O)c(OC)c(O)c3c(=O)c2OC)cc1"
A. Condition not met

Q. Could you do the same for "COc1c(O)cc([C@H]2Oc3cc(O)cc(O)c3C(=O)[C@@H]2O[C@@H]2O[C@H](C)[C@@H](O)[C@H](O)[C@@H]2O[C@@H]2O[C@H](C)[C@@H](O)[C@H](O)[C@@H]2O)cc1O" , please?
A. Condition met

Q. Could you do the same for "C[C@H]1O[C@@H](Oc2cc(O)c3c(c2)O[C@H](c2cc(O)c(O)c(O)c2)CC3=O)[C@@H](O)[C@@H](O)[C@@H]1O" , please?
A. Condition met

----------
# System: Mus musculus
# assay.info: Hepatoprotective activity in CD1 Mus musculus (mouse) assessed as reduction of CCl4-induced total cholesterol level in serum at 20 mg/kg, po administered 30 min before and 3 hr after CCl4 challenge measured 48 hr post CCl4 challenge (reference value: 172.57 +/- 4.36 md/dl)
# Assay type: functional
attribute.measured: Activity (mg/dL)
Please state the figure in mg/dL; there is no need to write the unit.

Q. Look up Activity for this compound: "COc1c(O)cc([C@H]2Oc3cc(O)cc(O)c3C(=O)[C@@H]2O[C@@H]2O[C@H](C)[C@@H](O)[C@H](O)[C@@H]2O[C@@H]2O[C@H](C)[C@@H](O)[C@H](O)[C@@H]2O)cc1O"
A. 129.31

Q. Could you do the same for "C[C@H]1O[C@@H](Oc2cc(O)c3c(c2)O[C@H](c2cc(O)c(O)c(O)c2)CC3=O)[C@@H](O)[C@@H](O)[C@@H]1O" , please?
A. 124.34

Q. Could you do the same for "COc1ccc([C@@H]2CC(=O)c3c(OC)cc(O[C@@H]4O[C@H](C)[C@@H](O)[C@H](O)[C@@H]4O)cc3O2)cc1O" , please?
A. 140.13

Q. Could you do the same for "COc1ccc(-c2oc3cc(O[C@@H]4O[C@H](CO)[C@@H](O)[C@H](O[C@@H]5O[C@@H](C)[C@H](O)[C@@H](O)[C@H]5O)[C@H]4O)c(OC)c(O)c3c(=O)c2OC)cc1" , please?
A. 143.28

Q. Could you do the same for "COc1cc(O)cc2c1C(=O)[C@H](O[C@@H]1O[C@H](C)[C@@H](O)[C@H](O)[C@@H]1O)[C@@H](c1cc(O)c(OC)c(O)c1)O2" , please?
A. 136.8

----------
# Test system: Mus musculus
# assay.info: Hepatoprotective activity in CD1 Mus musculus (mouse) assessed as reduction of CCl4-induced serum alanine aminotransferase level at 20 mg/kg, po administered 30 min before and 3 hr after CCl4 challenge measured 48 hr post CCl4 challenge (reference value: 296 +/- 7.93 IU/l)
# Format: functional
For each entry below, report its Activity value.
Please state the figure in IU/L; there is no need to write the unit.

Q. Find the measured Activity: item "COc1c(O)cc([C@H]2Oc3cc(O)cc(O)c3C(=O)[C@@H]2O[C@@H]2O[C@H](C)[C@@H](O)[C@H](O)[C@@H]2O[C@@H]2O[C@H](C)[C@@H](O)[C@H](O)[C@@H]2O)cc1O" , target or system Mus musculus.
A. 115.1

Q. Could you do the same for "COc1ccc([C@@H]2CC(=O)c3c(OC)cc(O[C@@H]4O[C@H](C)[C@@H](O)[C@H](O)[C@@H]4O)cc3O2)cc1O" , please?
A. 143.6

Q. Could you do the same for "COc1ccc(-c2oc3cc(O[C@@H]4O[C@H](CO)[C@@H](O)[C@H](O[C@@H]5O[C@@H](C)[C@H](O)[C@@H](O)[C@H]5O)[C@H]4O)c(OC)c(O)c3c(=O)c2OC)cc1" , please?
A. 152.4

Q. Could you do the same for "C[C@H]1O[C@@H](Oc2cc(O)c3c(c2)O[C@H](c2cc(O)c(O)c(O)c2)CC3=O)[C@@H](O)[C@@H](O)[C@@H]1O" , please?
A. 103.4

Q. Could you do the same for "COc1cc(O)cc2c1C(=O)[C@H](O[C@@H]1O[C@H](C)[C@@H](O)[C@H](O)[C@@H]1O)[C@@H](c1cc(O)c(OC)c(O)c1)O2" , please?
A. 124.2

Values were extracted from ChEMBL document CHEMBL3046463.
